# Target: T1, Histidine-tagged human CD3e protein (human, UniProt P07766 23-126)
# T1 construct: also called hCD3e-His; not shown: His tag
# T1 sequence (P07766 23-126 limits assumed): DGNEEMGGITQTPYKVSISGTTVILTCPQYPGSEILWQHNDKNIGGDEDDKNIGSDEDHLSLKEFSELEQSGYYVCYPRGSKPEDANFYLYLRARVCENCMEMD
# Test Method Notes: SPR (Biacore), human CD3e

{"Binder": "10A4-H2K1-IgG1-LALA (antibody, V domains shown, Humanized; human IgG1 with LALA mutations; also called H2K1 (humanized 10A4)) VH: QVQLVQSGAEVKKPGASVKISCKASGYTFTSYYIHWVRQAPGQRLEFIGWIYPGNVNAKYNEKFKGRATITTDKSASTAYMELSSLRSEDTAVYYCAIKGGNYDWGQGTLVTVSS VL: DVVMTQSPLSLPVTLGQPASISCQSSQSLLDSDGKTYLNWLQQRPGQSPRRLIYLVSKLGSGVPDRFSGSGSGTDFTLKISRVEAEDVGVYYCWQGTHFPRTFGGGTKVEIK", "Kd [nM]": 1.84}
{"Binder": "10A4-H1K2-IgG1-LALA (antibody, V domains shown, Humanized; human IgG1 with LALA mutations; also called H1K2 (humanized 10A4)) VH: QVQLVQSGAEVKKPGASVKVSCKASGYTFTSYYIHWVRQAPGQRLEFIGWIYPGNVNAKYNEKFKGRVTITTDKSASTAYMELSSLRSEDTAVYYCAIKGGNYDWGQGTLVTVSS VL: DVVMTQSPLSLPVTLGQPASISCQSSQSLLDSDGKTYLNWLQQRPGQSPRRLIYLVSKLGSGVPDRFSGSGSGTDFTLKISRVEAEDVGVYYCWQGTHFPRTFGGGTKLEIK", "Kd [nM]": 2.14}
{"Binder": "10A4-H3K2-IgG1-LALA (antibody, V domains shown, Humanized; human IgG1 with LALA mutations; also called H3K2 (humanized 10A4)) VH: QVQLVQSGAEVKKPGASVKISCKASGYTFTSYYIHWVRQRPGQRLEFIGWIYPGNVNAKYNEKFKGRATLTTDKSASTAYMELSSLRSEDTAVYFCAIKGGNYDWGQGTLVTVSS VL: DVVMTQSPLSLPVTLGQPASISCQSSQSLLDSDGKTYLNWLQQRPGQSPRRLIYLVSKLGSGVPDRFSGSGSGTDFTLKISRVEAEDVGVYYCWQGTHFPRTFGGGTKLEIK", "Kd [nM]": 2.02}
